Please find below Ki data on Vasopressin V1b receptor (Homo sapiens, UniProt P47901) compiled from the literature.

Example entries begin here.
1. COc1ccc(S(=O)(=O)n2c(=O)n(C(C(=O)N3CCN(c4ccncc4)CC3)c3ccccc3)c3cc(Cl)ccc32)c(OC)c1 (stereo not shown) = 100 to 500 nM
2. CCN(CC)C[C@H]1C[C@@H](c2ccc3nc(-c4cccc(Cl)c4)n(CC(=O)NC(C)C)c(=O)c3c2)C1 = 10 to 100 nM
3. CCOc1nc(Cl)ccc1C1(N2CCN(c3ccncc3)CC2)C(=O)N(S(=O)(=O)c2cccc3c(C)ccnc23)c2ccc(C#N)cc21 (racemic) = 10 to 50 nM
4. CC(C)NC(=O)Cn1c(-c2cccc(Cl)c2)nc2ccc([C@H]3C[C@@H](CN4CC[C@@H](F)C4)C3)cc2c1=O = 1 to 10 nM

Tell me reported Ki for CCCOCCNC(=O)C(c1ccccc1)n1c(=O)n(S(=O)(=O)c2ccc(OC)cc2)c2ccc(Cl)cc21 (stereo not shown) , tested with Vasopressin V1b receptor (Homo sapiens, UniProt P47901).
500 to 10000 nM

Tell me reported Ki for COc1ccc(S(=O)(=O)N2C(=O)C(c3cc(CNC(C)C)ccc3OC)(N3CCC[C@H]3c3ncco3)c3cc(Cl)ccc32)cc1 (stereo partly shown) , tested with Vasopressin V1b receptor (Homo sapiens, UniProt P47901).
< 10 nM

Tell me reported Ki for CCOc1ccc(OC)cc1C1(N2CC3(CN(c4ccnc(C)c4)C3)C2)C(=O)N(S(=O)(=O)c2ccc(OC)cc2OC)c2ccc(C#N)cc21 (single isomer, unassigned; (+)) , tested with Vasopressin V1b receptor (Homo sapiens, UniProt P47901).
10 to 100 nM

Tell me reported Ki for COc1ccc(S(=O)(=O)N2C(=O)C(c3cccnc3OC)(N3CC4(CN(C5CCN(C)CC5)C4)C3)c3cc(C#N)ccc32)nc1 (racemic) , tested with Vasopressin V1b receptor (Homo sapiens, UniProt P47901).
1 to 10 nM

Tell me reported Ki for COc1ccc(S(=O)(=O)n2c(=O)n(C(C(=O)N3CC[C@H](NC4CCN(CCF)CC4)C3)c3ccccc3)c3cc(C#N)ccc32)cc1 (stereo partly shown) , tested with Vasopressin V1b receptor (Homo sapiens, UniProt P47901).
< 100 nM

Tell me reported Ki for COc1ccc(S(=O)(=O)N2C(=O)C(NCc3ncco3)(c3cc(CNCCO)ccc3OC)c3cc(Cl)ccc32)cc1 (stereo not shown) , tested with Vasopressin V1b receptor (Homo sapiens, UniProt P47901).
10 to 100 nM

* * *

Please find below pKi data on Vasopressin V1b receptor (Homo sapiens) compiled from the literature.
pKi: −log10 of the molar value.

1. CCN(C)Cc1ccc(C2(N3CCC[C@H]3c3ncco3)C(=O)N(S(=O)(=O)c3ccc(OC)cc3)c3ccc(Cl)cc32)c(OC)c1 (stereo partly drawn) = > 8.00

# get_value(readout='pKi', item= CCOc1ccc(CNC(C)C)cc1C1(N2CCC[C@H]2c2ncco2)C(=O)N(S(=O)(=O)c2ccc(OC)cc2)c2ccc(Cl)cc21 (stereo partly drawn) )
7.00 to 8.00

# get_value(readout='pKi', item= COc1ccc(S(=O)(=O)n2c(=O)n(C(C(=O)NCCN3CCCCC3)c3ccccc3)c3cc(Cl)ccc32)cc1 (stereo not drawn) )
5.00 to 6.30

# get_value(readout='pKi', item= COc1ccc(S(=O)(=O)N2C(=O)C(c3ccccc3OC)(N3C[C@H]4CN(c5ccncc5)C[C@H]43)c3cc(Cl)ccc32)c(OC)c1 (stereo partly drawn) )
> 7.30

# get_value(readout='pKi', item= CCCN1CCN([C@H]2CCN(C(=O)C(c3ccccc3)n3c(=O)n(S(=O)(=O)c4ccc(OC)cc4)c4ccc(Cl)cc43)C2)CC1 (stereo partly drawn) )
> 7.00

# get_value(readout='pKi', item= CCOc1ccc(OC)cc1C1(N2CCCN(c3ccnc(C)c3)CC2)C(=O)N(S(=O)(=O)c2ccc(OC)cc2OC)c2ccc(C#N)cc21 (racemic) )
> 7.30

* * *

Please find below Ki data on Vasopressin V1b receptor (Homo sapiens, UniProt P47901) compiled from the literature.

Example entries begin here.
1) COc1ccc(S(=O)(=O)n2c(=O)n(C(C(=O)N3CC[C@H](CN4CCN(C(C)C)CC4)C3)c3ccccc3)c3cc(C#N)ccc32)cc1 (stereo partly drawn) = < 100 nM
2) COc1ccc(S(=O)(=O)N2C(=O)C(c3ccc(CN(C)C(C)C)cc3OC)(N3CCC[C@H]3c3ncco3)c3cc(Cl)ccc32)cc1 (stereo partly drawn) = < 10 nM
3) COc1ccc(S(=O)(=O)N2C(=O)C(c3cc(CN4CCNCC4)ccc3OC)(N3CCC[C@H]3c3ncco3)c3cc(Cl)c(F)cc32)cc1 (stereo partly drawn) = < 10 nM
4) CCOc1ccc(OC)cc1C1(N2CCCN(c3ccnc(C)c3)CC2)C(=O)N(S(=O)(=O)c2ccc(OC)c3cccnc23)c2ccc(C#N)cc21 (racemic) = < 10 nM

Tell me reported Ki for CCNCc1ccc(C2(N3CCC[C@H]3c3ncco3)C(=O)N(S(=O)(=O)c3ccc(OC)cc3)c3ccc(C#N)cc32)c(OC)c1 (stereo partly drawn) , tested with Vasopressin V1b receptor (Homo sapiens, UniProt P47901).
10 to 100 nM

Tell me reported Ki for COc1ccccc1C1(N2CCN(c3ccncc3)CC2)C(=O)N(S(=O)(=O)c2ccc(C#N)cc2)c2ccc(Cl)cc21 (stereo not drawn) , tested with Vasopressin V1b receptor (Homo sapiens, UniProt P47901).
50 to 500 nM

Tell me reported Ki for CCOc1ncccc1C1(OC(=O)N2CCN(C3CCN(C)CC3)CC2)C(=O)N(S(=O)(=O)c2ccc(OC)cc2OC)c2ccc(C#N)cc21 (racemic) , tested with Vasopressin V1b receptor (Homo sapiens, UniProt P47901).
< 10 nM

Tell me reported Ki for COc1ccc(S(=O)(=O)N2C(=O)C(c3ccc(CN4CCNC(=O)C4)cc3OC)(N3CCC[C@H]3c3ncco3)c3cc(Cl)ccc32)cc1 (stereo partly drawn) , tested with Vasopressin V1b receptor (Homo sapiens, UniProt P47901).
10 to 100 nM

* * *

pKi: −log10 of the molar value.
Please find below pKi data on Vasopressin V1b receptor (Homo sapiens, UniProt P47901) compiled from the literature.

Example entries begin here.
1. COc1ccc(S(=O)(=O)n2c(=O)n(CC(=O)N3CCN(c4ccncc4)CC3)c3cc(Cl)ccc32)c(OC)c1 = 6.30 to 7.00
2. CCOc1ncccc1[C@]1(NC(=O)N2CC(N3CCC(N4CCOCC4)CC3)C2)C(=O)N(S(=O)(=O)c2ccc(OC)cc2OC)c2ccc(Cl)cc21 = > 9.00
3. COc1ccc(S(=O)(=O)n2c(=O)n(C(C(=O)N3CCN(C4CCN(C)CC4)CC3)c3ccccc3OC)c3cc(Cl)ccc32)c(OC)c1 (stereo not drawn) = 5.00 to 6.30
4. CCOc1ncccc1[C@]1(NC(=O)N2CC(N3CCC(N(C)C)CC3)C2)C(=O)N(S(=O)(=O)c2ccc(OC)cc2OC)c2ccc(C#N)cc21 = 8.00 to 9.00
5. COc1ccc(S(=O)(=O)N2C(=O)C(c3cc(CNC(C)C)cc4c3OCO4)(N3CCC[C@H]3c3ncco3)c3cc(Cl)ccc32)cc1 (stereo partly drawn) = > 8.00

# get_value(readout='pKi', item= COc1ccc(S(=O)(=O)N2C(=O)C(c3ccc(CN4CCCCC4)cc3OC)(N3CCC[C@H]3C(=O)N(C)C)c3cc(Cl)ccc32)c(OC)c1 (single isomer, unassigned) )
8.00 to 9.00

# get_value(readout='pKi', item= CCOc1ncccc1C1(OC(=O)c2ccc(N3CCN(C)CC3)cc2)C(=O)N(S(=O)(=O)c2ccc(OC)cc2)c2ccc(C#N)cc21 (stereo not drawn) )
8.00 to 9.00

# get_value(readout='pKi', item= CNCc1ccc(C2(N3C[C@H](O)C[C@H]3c3ncco3)C(=O)N(S(=O)(=O)c3ccc(OC)cc3)c3ccc(Cl)cc32)c(OC)c1 (stereo partly drawn) )
> 8.00

# get_value(readout='pKi', item= CCOc1ccccc1C1(N2CCN(c3ccncc3)CC2)C(=O)N(S(=O)(=O)c2ccc(C(C)=O)cc2)c2ccc(C#N)cc21 (racemic) )
6.30 to 7.30

* * *

Please find below Ki data on Vasopressin V1b receptor (Homo sapiens) compiled from the literature.

1. CCNCc1ccc(C2(N3C[C@H](O)C[C@H]3c3ncco3)C(=O)N(S(=O)(=O)c3ccc(C#N)cc3)c3ccc(Cl)cc32)c(OC)c1 (stereo partly shown) = 0.01 to 0.1 µM

# get_value(readout='Ki', item= COCc1ccccc1C1(N2CCN(c3ccncc3)CC2)C(=O)N(S(=O)(=O)c2ccc(OC)cc2OC)c2ccc(Cl)cc21 (stereo not shown) )
0.05 to 0.5 µM

# get_value(readout='Ki', item= COc1ccccc1C(C(=O)N1CCN(c2ccncc2)CC1)n1c(=O)n(S(=O)(=O)c2ccc(C#N)cc2)c2ccc(Cl)cc21 (stereo not shown) )
0.5 to 10 µM

# get_value(readout='Ki', item= N#Cc1ccc2c(c1)n(C(C(=O)N1CCN(c3ccncc3)CC1)c1ccccc1)c(=O)n2S(=O)(=O)c1cccc2cccnc12 (stereo not shown) )
0.5 to 10 µM

# get_value(readout='Ki', item= COc1ccc(S(=O)(=O)n2c(=O)n(C(C(=O)NCCCCN(C)C)c3ccccc3)c3cc(Cl)ccc32)cc1 (stereo not shown) )
0.1 to 0.5 µM

# get_value(readout='Ki', item= CCOc1ccc(OC)cc1C1(N2CCN(c3ccncc3)CC2)C(=O)N(S(=O)(=O)c2ccc(F)c3cccnc23)c2ccc(C#N)cc21 (racemic) )
< 0.01 µM

# get_value(readout='Ki', item= O=C(Cn1c(-c2cccc(Cl)c2)nc2ccc([C@H]3C[C@@H](CN4CCCCC4)C3)cc2c1=O)NC1CC1 )
0.01 to 0.1 µM

# get_value(readout='Ki', item= CCN(C1CCN(C2CN(C(=O)N[C@@]3(c4cccnc4OC)C(=O)N(S(=O)(=O)c4ccc(OC)cc4OC)c4ccc(C#N)cc43)C2)CC1)C1COC1 )
0.001 to 0.01 µM

# get_value(readout='Ki', item= CCOc1cc(OC)ccc1C1(N2CCC(N3CCN(C)CC3)CC2)C(=O)N(S(=O)(=O)c2ccc(OC)cn2)c2ccc(C#N)cc21 (racemic) )
< 0.01 µM

# get_value(readout='Ki', item= CNCc1ccc(C2(N3CCC[C@H]3c3ncco3)C(=O)N(S(=O)(=O)c3ccc(OC)cc3)c3ccc(Cl)cc32)c(OC)c1 (stereo partly shown) )
< 0.01 µM

# get_value(readout='Ki', item= COc1ccc(S(=O)(=O)n2c(=O)n(C(C)C(=O)N3CCN(c4ccncc4)CC3)c3cc(Cl)ccc32)c(OC)c1 (stereo not shown) )
0.1 to 0.5 µM

# get_value(readout='Ki', item= CCOc1ncccc1[C@]1(NC(=O)N2CC(N3CCC(N(C)C4COC4)CC3)C2)C(=O)N(S(=O)(=O)c2ccc(OC)cc2OC)c2cc(F)c(F)cc21 )
0.001 to 0.01 µM

# get_value(readout='Ki', item= COc1cc(C)ccc1S(=O)(=O)n1c(=O)n(C(C(=O)N2CCN(c3ccncc3)CC2)c2ccccc2)c2cc(Cl)ccc21 (stereo not shown) )
0.5 to 10 µM
